# method: Stability of marker solutions stored frozen at -10 to -20°C, followed by retention time at column calibration
# Type: physicochemical
# Design: unit not given here
# measurement setup: stored at -10° to -20°C; date of calibration 22-May-97, interval -
parameter measured: RT
One number for each entry.

Fill in RT for each of the 4 molecules listed.
1. TV-86: 86-mer sequence-defined polypeptide molecular weight marker of Ala, Glu, Tyr, Lys, molecular weight = 9220 daltons (peptide) AKKYAKKEKAYAKKAEKAAKKAEAKAYKAAEAKKKAKAEAKKYAKAAKAEKKEYAAAEAKYKAEAAKKAYKAEAAKAAAKEAAYEA
2. TV-77: 77-mer sequence-defined polypeptide molecular weight marker of Ala, Glu, Tyr, Lys, molecular weight = 8259 daltons (peptide) AKKYAKKEKAYAKKAEKAAKKAEAKAYKAAEAKKKAKAEAKKYAKAAKAEKKEYAAAEAKYKAEAAKAAAKEAAYEA
3. TV-109: 109-mer sequence-defined polypeptide molecular weight marker, molecular weight = 11727 daltons (peptide) AKKYAKKAEKAYAKKAKAAKEKKAYAKKEAKAYKAAEAKKKAKAEAKKYAKEAAKAKKEAYKAEAKKYAKAAKAEKKEYAAAEAKKAEAAKAYKAEAAKAAAKEAAYEA
4. TV-66: 66-mer sequence-defined polypeptide molecular weight marker of Ala, Glu, Tyr, Lys, molecular weight = 7040 daltons (peptide) AKKYAKKEKAYAKAKKAEAKAAKKAKAEAKKYAKAAKAEKKEYAAAEAKYKAEAAKAAAKEAAYEA

Result:
1. 24.883
2. 25.467
3. 23.500
4. 26.233
